Origin of values: patent US4559338A

target: CCK receptor (pancreas) (Rattus norvegicus, UniProt P30551); construct: The whole pancreas of a male Sprague-Dawley rat (200-350 g); test: CCK receptor binding (pancreas) method, 125I-CCK; conditions: I-CCK-8 Pancreas assay; read-out: Anti-CCK Activity IC50
Sequence (P30551 whole entry): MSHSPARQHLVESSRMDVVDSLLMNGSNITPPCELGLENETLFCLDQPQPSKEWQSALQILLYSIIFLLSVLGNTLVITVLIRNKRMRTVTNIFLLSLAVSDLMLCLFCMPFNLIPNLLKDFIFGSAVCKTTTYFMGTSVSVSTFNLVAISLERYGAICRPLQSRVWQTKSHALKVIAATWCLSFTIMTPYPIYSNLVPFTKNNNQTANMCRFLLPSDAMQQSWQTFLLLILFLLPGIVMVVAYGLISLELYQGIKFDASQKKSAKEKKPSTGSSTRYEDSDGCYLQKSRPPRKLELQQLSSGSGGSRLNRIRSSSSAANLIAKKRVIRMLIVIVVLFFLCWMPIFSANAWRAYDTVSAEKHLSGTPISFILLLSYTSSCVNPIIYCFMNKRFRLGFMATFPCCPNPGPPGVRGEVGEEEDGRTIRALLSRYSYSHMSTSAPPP
Where a name gives a salt, the structure may show the parent alone.
assay readout: pIC50
API: returns pIC50 as number; meaning -log10 of concentration in mol/L.

compound	pIC50
CC(C)C[C@H]1C(=O)N2c3ccccc3[C@@](O)(C[C@@H]3NC(=O)c4ccccc4-n4c3nc3ccccc3c4=O)[C@H]2N1C(=O)CCC(=O)O	3.64
CC(C)CC1C(=O)N2c3ccccc3C(O)(C3NC(=O)c4ccccc4-n4c3nc3ccccc3c4=O)C2N1C(=O)CCC(=O)[O-].[Na+] (stereo not drawn)	4.57
CC(C)C[C@H]1C(=O)N2c3ccccc3[C@@](O)(C[C@@H]3NC(=O)c4ccccc4-n4c3nc3ccccc3c4=O)[C@H]2N1C(=O)[C@@H](N)CCCCN [Example 3, dihydrochloride]	5.42
CC(C)C[C@H]1C(=O)N2c3ccccc3[C@@](O)(C[C@@H]3NC(=O)c4ccccc4N4C(=O)c5ccccc5NC34)[C@H]2N1CC(=O)O (stereo partly drawn) [Example 7]	5.85
CC(C)C[C@H]1C(=O)N2c3ccccc3[C@@](O)(C[C@@H]3NC(=O)c4ccccc4-n4c3nc3ccccc3c4=O)[C@H]2N1C(=O)[C@@H](N)CCCNC(=O)OCc1ccccc1 [Example 6, hydrochloride]	5.74
CC(C)C[C@H]1C(=O)N2c3ccccc3[C@@](O)(C[C@@H]3NC(=O)c4ccccc4N4C(=O)c5ccccc5NC34)[C@H]2N1C(=O)CCC(=O)O (stereo partly drawn) [Example 4, dihydrate]	5.21
CC(C)C[C@@H]1N[C@H]2N(C1=O)c1ccccc1[C@]2(C[C@@H]1NC(=O)c2ccccc2-n2c1nc1ccccc1c2=O)OC(=O)CCC(=O)O [Example 9, monohydrate]	4.07
CC(C)C[C@H]1C(=O)N2c3ccccc3[C@@](O)(C[C@@H]3NC(=O)c4ccccc4N4C(=O)c5ccccc5NC34)[C@H]2N1CC(=O)O (stereo partly drawn) [Example 8]	6.10

CC(C)C[C@H]1C(=O)N2c3ccccc3[C@@](O)(C[C@@H]3NC(=O)c4ccccc4N4C(=O)c5ccccc5NC34)[C@H]2N1C(=O)CCC(=O)O (stereo partly drawn) [Example 5, trihydrate] has a reported pIC50 of 5.77

###

Recorded measurements of Solubility, one per entry
assay: Solubility in deionized water and pH 7.4 phosphate buffer; format: physicochemical; conditions: phosphate buffer, pH 7.4, aqueous buffer, pH 7.4 Buffer; read-out: Solubility
The figure you give is taken to be in mg/mL; do not add the unit.

molecule	assay readout	unit of measure	recorded measurement
CC(C)C[C@H]1C(=O)N2c3ccccc3[C@@](O)(C[C@@H]3NC(=O)c4ccccc4N4C(=O)c5ccccc5NC34)[C@H]2N1C(=O)CCC(=O)O (some centres unmarked) [Example 4, dihydrate]	Solubility	mg/mL	10.8

Alright, here's another molecule for you.
Record CC(C)C[C@H]1C(=O)N2c3ccccc3[C@@](O)(C[C@@H]3NC(=O)c4ccccc4-n4c3nc3ccccc3c4=O)[C@H]2N1C(=O)CCC(=O)O , field Solubility: 9.5
